Measured viability, T/C by item
# Tested on: KRAS-mutant PDC multicell tumor spheroid viability
# protocol.text: Anticancer human tumor 521955-158-R2-J5-PDC patient-derived pancreatic carcinoma cell line growth inhibition [KRAS2]
# condition.parameters: second compound 0.0316 µM; first compound 0.00316 µM; active compounds read low
Express your answer in %, writing the number without its unit.

[in] GET viability, T/C | system: KRAS-mutant PDC multicell tumor spheroid viability | item: CC(=O)Nc1cccc(-n2c(=O)n(C3CC3)c(=O)c3c(Nc4ccc(I)cc4F)n(C)c(=O)c(C)c32)c1 + C=CC(=O)N1CCN(c2nc(OCC3CCCN3C)nc3c2CCN(c2cccc4cccc(C)c24)C3)CC1CC#N
[out] 26.5

[in] GET viability, T/C | system: KRAS-mutant PDC multicell tumor spheroid viability | item: CN(C)C/C=C/C(=O)Nc1cc2c(Nc3ccc(F)c(Cl)c3)ncnc2cc1O[C@H]1CCOC1 + C=CC(=O)N1CCN(c2nc(OCC3CCCN3C)nc3c2CCN(c2cccc4cccc(C)c24)C3)CC1CC#N
[out] 75.7

[in] GET viability, T/C | system: KRAS-mutant PDC multicell tumor spheroid viability | item: CCN1CCN(Cc2ccc(Nc3ncc(F)c(-c4cc(F)c5nc(C)n(C(C)C)c5c4)n3)nc2)CC1 + C=CC(=O)N1CCN(c2nc(OCC3CCCN3C)nc3c2CCN(c2cccc4cccc(C)c24)C3)CC1CC#N
[out] 93.5

[in] GET viability, T/C | system: KRAS-mutant PDC multicell tumor spheroid viability | item: CC(C)n1nc(-c2ccc3oc(N)nc3c2)c2c(N)ncnc21 + C=CC(=O)N1CCN(c2nc(OCC3CCCN3C)nc3c2CCN(c2cccc4cccc(C)c24)C3)CC1CC#N
[out] 68.1

[in] GET viability, T/C | system: KRAS-mutant PDC multicell tumor spheroid viability | item: Cn1ncnc1[C@H]1c2n[nH]c(=O)c3cc(F)cc(c23)N[C@@H]1c1ccc(F)cc1 + C=CC(=O)N1CCN(c2nc(OCC3CCCN3C)nc3c2CCN(c2cccc4cccc(C)c24)C3)CC1CC#N
[out] 103

###

# Tested on: KRAS-mutant PDC multicell tumor spheroid viability
# protocol.text: Anticancer human tumor 521955-158-R2-J5-PDC cell line growth inhibition [KRAS2];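 further: viability read after seven days of drug exposure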
# condition.parameters: second compound 1 µM; first compound 0.1 µM; active compounds read low
recorded.endpoint: viability, T/C (%)
Express your answer in %, writing the number without its unit.

[in] Please report the measured viability, T/C for CN(C)C/C=C/C(=O)Nc1cc2c(Nc3ccc(F)c(Cl)c3)ncnc2cc1O[C@H]1CCOC1 + C=CC(=O)N1CCN(c2nc(=O)n(-c3c(C)ccnc3C(C)C)c3nc(-c4c(O)cccc4F)c(F)cc23)C(C)C1
[out] 71

[in] Please report the measured viability, T/C for CC1COCCN1c1cc(-c2ccnn2C)c2ccnc(-c3ccn[nH]3)c2n1 (stereo unspecified) + COc1cc2nc(C)nc(NC(C)c3cc(N)cc(C(F)(F)F)c3)c2cc1OC1CCOC1
[out] 10.1

[in] Please report the measured viability, T/C for CC1(C)CCC(CN2CCN(c3ccc(C(=O)NS(=O)(=O)c4ccc(NCC5CCOCC5)c([N+](=O)[O-])c4)c(Oc4cnc5[nH]ccc5c4)c3)CC2)=C(c2ccc(Cl)cc2)C1 + CC1OCC2(CCN(c3cnc(Sc4ccnc(N)c4Cl)c(N)n3)CC2)C1N
[out] 51.5

[in] Please report the measured viability, T/C for CCN1CCN(Cc2ccc(Nc3ncc(F)c(-c4cc(F)c5nc(C)n(C(C)C)c5c4)n3)nc2)CC1 + CC1OCC2(CCN(c3cnc(Sc4ccnc(N)c4Cl)c(N)n3)CC2)C1N
[out] 60

[in] Please report the measured viability, T/C for COc1cc2nccc(Oc3ccc(NC(=O)C4(C(=O)Nc5ccc(F)cc5)CC4)cc3)c2cc1OC + CC1OCC2(CCN(c3cnc(Sc4ccnc(N)c4Cl)c(N)n3)CC2)C1N
[out] 64.5

[in] Please report the measured viability, T/C for CC1OCC2(CCN(c3cnc(Sc4ccnc(N)c4Cl)c(N)n3)CC2)C1N (stereo unspecified) + C=CC(=O)N1CCN(c2nc(OCC3CCCN3C)nc3c2CCN(c2cccc4cccc(C)c24)C3)CC1CC#N
[out] 70.7

[in] Please report the measured viability, T/C for COc1cc(Nc2ncc3c(n2)-c2ccc(Cl)cc2C(c2c(F)cccc2OC)=NC3)ccc1C(=O)O + CNCc1ccccc1-c1csc(C(C)Nc2nc(C)nc3cc(OC)c(OC)cc23)c1
[out] 31.4

[in] Please report the measured viability, T/C for CC(C)NCC(C(=O)N1CCN(c2ncnc3c2C(C)CC3O)CC1)c1ccc(Cl)cc1 (stereo unspecified) + CC1OCC2(CCN(c3cnc(Sc4ccnc(N)c4Cl)c(N)n3)CC2)C1N
[out] 60.9

[in] Please report the measured viability, T/C for CCN1CCN(Cc2ccc(Nc3ncc(F)c(-c4cc(F)c5nc(C)n(C(C)C)c5c4)n3)nc2)CC1 + C=CC(=O)N1CCN(c2nc(=O)n(-c3c(C)ccnc3C(C)C)c3nc(-c4c(O)cccc4F)c(F)cc23)C(C)C1
[out] 95.5

[in] Please report the measured viability, T/C for CC1COCCN1c1cc(-c2ccnn2C)c2ccnc(-c3ccn[nH]3)c2n1 (stereo unspecified) + CNCc1ccccc1-c1csc(C(C)Nc2nc(C)nc3cc(OC)c(OC)cc23)c1
[out] 8.4

[in] Please report the measured viability, T/C for COC(=O)c1ccc2c(C(=Nc3ccc(N(C)C(=O)CN4CCN(C)CC4)cc3)c3ccccc3)c(O)[nH]c2c1 + C=CC(=O)N1CCN(c2nc(OCC3CCCN3C)nc3c2CCN(c2cccc4cccc(C)c24)C3)CC1CC#N
[out] 50.6
